Molecular target: Shaker K+ channel (Drosophila melanogaster, UniProt P08510, DEL6-46)
Construct: expressed in transfected cells; host or cells: Xenopus laevis oocytes injected with in vitro transcribed cRNA (cDNA clone from the Bezanilla laboratory)
Sequence (P08510 other isoform, or with tags, fused parts or gaps DEL6-46): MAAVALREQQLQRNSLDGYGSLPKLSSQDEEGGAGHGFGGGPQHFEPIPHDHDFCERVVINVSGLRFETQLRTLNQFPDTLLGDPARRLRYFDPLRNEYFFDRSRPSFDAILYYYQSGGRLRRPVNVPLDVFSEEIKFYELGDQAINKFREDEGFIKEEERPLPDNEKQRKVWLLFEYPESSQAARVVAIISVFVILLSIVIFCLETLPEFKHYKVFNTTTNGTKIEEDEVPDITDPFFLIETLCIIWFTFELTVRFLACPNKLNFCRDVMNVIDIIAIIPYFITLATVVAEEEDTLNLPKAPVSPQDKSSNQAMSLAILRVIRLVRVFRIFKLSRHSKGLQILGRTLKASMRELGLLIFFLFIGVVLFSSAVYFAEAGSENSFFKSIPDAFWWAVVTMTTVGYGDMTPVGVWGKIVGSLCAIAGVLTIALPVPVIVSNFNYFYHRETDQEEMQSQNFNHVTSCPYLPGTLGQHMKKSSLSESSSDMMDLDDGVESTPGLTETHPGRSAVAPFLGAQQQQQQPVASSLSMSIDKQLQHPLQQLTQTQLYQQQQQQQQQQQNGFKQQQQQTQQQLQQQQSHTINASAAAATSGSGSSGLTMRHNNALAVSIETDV
Assay: cell-based
Format: cell-based, D. melanogaster
Details: 40 mV, pH 7.4, Hill equation fit; read-out: IC50
REPORTED METRIC: IC50 (µM)
Please respond with the number in µM and leave the unit unwritten.

Data request, read-out IC50, for COc1cnccc1N 807

Same thing, different compound: Nc1ccncc1F [3F4AP, 3-fluoro-4-aminopyridine, reference compound] 244

Query Nc1ccnc(C(F)(F)F)c1 [2CF34AP, 2-trifluoromethyl-4-aminopyridine] next 12800

* * *

Target: Shaker K+ channel (Drosophila melanogaster, UniProt P08510, DEL6-46)
Construct: expressed in transfected cells; host or cells: Xenopus laevis oocytes injected with in vitro transcribed cRNA (cDNA clone from the Bezanilla laboratory)
Test: cell-based
Format: cell-based, D. melanogaster
Conditions: IC50 increase with voltage (from lowest to highest voltage), over the voltage values studied; Fig. 4 shows 10 to 50 mV
pIC50: −log10 of the molar value.
Exercise: for every item that follows, state its recorded pIC50.

// pIC50 lookup, key: Cc1cnccc1N 4.30 to 4.43

Also check Nc1ccncc1C(F)(F)F [3CF34AP, 3-trifluoromethyl-4-aminopyridine] 2.94 to 3.16

* * *

So I've got a bunch of molecules here, and I need their pIC50 values.
Biological target: Shaker K+ channel (Drosophila melanogaster, UniProt P08510, DEL6-46)
Construct: expressed in transfected cells; host or cells: Xenopus laevis oocytes injected with in vitro transcribed cRNA (cDNA clone from the Bezanilla laboratory)
Experiment: cell-based
Assay type: cell-based, D. melanogaster
Conditions: over the voltage values studied; Fig. 4 shows 10 to 50 mV; read-out: IC50 increase with voltage (from lowest to highest voltage)
pIC50: −log10 of the molar value.

# returns recorded pIC50 (system: Shaker K+ channel (Drosophila melanogaster, UniProt P08510, DEL6-46)) for Nc1ccncc1F [3F4AP, 3-fluoro-4-aminopyridine, reference compound] 3.52 to 3.80

Try the molecule COc1cnccc1N 3.00 to 3.51

* * *

Could you please report measured IC50 for the items listed next?
Biological target: Shaker K+ channel (Drosophila melanogaster, UniProt P08510, DEL6-46)
Construct: expressed in transfected cells; host or cells: Xenopus laevis oocytes injected with in vitro transcribed cRNA (cDNA clone from the Bezanilla laboratory)
Experiment: cell-based
Format: cell-based, D. melanogaster
Conditions: fit of IC50 vs voltage curves (10 to 50 mV) with Woodhull model; mean ± SD; read-out: IC50 at V = 0 mV (Woodhull parameter)
Write the value in µM as a bare number.

State its IC50 on Shaker K+ channel (Drosophila melanogaster, UniProt P08510, DEL6-46): Nc1ccncc1F [3F4AP, 3-fluoro-4-aminopyridine, reference compound] 122

Can you handle COc1cnccc1N [3MeO4AP, 3-methoxy-4-aminopyridine] next? 329

* * *

Target: Shaker K+ channel (Drosophila melanogaster, UniProt P08510, DEL6-46)
Construct: expressed in transfected cells; host or cells: Xenopus laevis oocytes injected with in vitro transcribed cRNA (cDNA clone from the Bezanilla laboratory)
Test: cell-based
Type: cell-based, D. melanogaster
Conditions: 0 mV, pH 6.8, Hill fit; read-out: IC50
Procedure: K^+ currents were measured in Xenopus oocytes expressing the commonly studied voltage-gated K^+ channel Shaker from D. melanogaster. […] Then, the relative current was determined as the ratio between the maximal amplitude of the K^+ current in the absence and in the presence of each drug. […] K^+ currents were recorded in the same oocyte, first in absence (IK) and then in presence of each drug (II). […] The integrity and stability of each oocyte were continuously monitored throughout the experiment. […]
REPORTED METRIC: IC50 (µM)
Provide the reading as a plain figure in µM.

# IC50 lookup, item COc1cnccc1N 357

Note, next up: Nc1ccncc1F [3F4AP, 3-fluoro-4-aminopyridine, reference compound] 82

// same read-out, input: Nc1ccnc(C(F)(F)F)c1 [2CF34AP, 2-trifluoromethyl-4-aminopyridine] 10400
